The reader will find reported koff values listed item by item below.
- Assayed target: T1, Fc tagged human PDL1 (human, UniProt Q9NZQ7 19-238)
- T1 construct: also called PDL1-Fc chimeric protein (human); not shown: Fc tag
- Experiment description: SPR Biacore T200; Fc tagged PDL1 captured; scFv 0.12-30 nM
Numeric only. Scale: s⁻¹

Some binders with known koff results, for comparison:
Binder	Assay endpoint	Unit label	Reported result
PRO1392 (33-03-G02-sc18 scFv) (scFv) scFv: DIQMTQSPSSLSASVGDRVTITCQASQSINDYLAWYQQKPGKAPKLLIYKASTLASGVPSRFSGSGSGTDFTLTISSLQPEDFATYYCQQGYIITDIDNVFGTGTKVTVLGGGGGSGGGGSGGGGSGGGGSQVQLQESGPGLVKPSETLSLTCKASGFSFSSGYDMCWVRQPPGKGLEWIACVVAGSVDITYYASWAKGRVTISKDSSKNQVSLKLSSVTAADTAVYYCARKDAYSDAFNLWGQGTLVTVSS	koff	s⁻¹	6.16e-05
PRO997/PRO908 (37-20-B03-sc01 scFv) (scFv, VL-linker-VH, VH4 CDR graft; PRO997 was made in CHO-S cells, PRO908 in bacteria; also called 37-20-B03 CDR) scFv: DIQMTQSPSSLSASVGDRVTITCQASQSIGTYLAWYQQKPGKAPKLLIYRAFILASGVPSRFSGSGSGTDFTLTISSLQPEDFATYYCQSNFYSDSTTIGPNAFGTGTKVTVLGGGGGSGGGGSGGGGSGGGGSQVQLQESGPGLVKPSETLSLTCKVSGFSFNSDYWIYWIRQPPGKGLEWIGSIYGGSSGNTQYASWAQGRVTISVDSSKNQFSLKLSSVTAADTAVYYCARGYVDYGGATDLWGQGTLVTVSS	koff	s⁻¹	4.02e-05

Shift focus to the following entry.
Q: What koff value was documented for this binder, PRO830 (33-03-G02-sc01 scFv) (scFv, also called 33-03-G02 CDR) scFv: DIQMTQSPSSLSASVGDRVTITCQASQSINDYLAWYQQKPGKAPKLLIYKASTLASGVPSRFSGSGSGTDFTLTISSLQPEDFATYYCQQGYIITDIDNVFGTGTKVTVLGGGGGSGGGGSGGGGSGGGGSQVQLQESGPGLVKPSETLSLTCKVSGFSFSSGYDMCWIRQPPGKGLEWIGCVVAGSVDITYYASWAKGRVTISVDSSKNQFSLKLSSVTAADTAVYYCARKDAYSDAFNLWGQGTLVTVSS ?
Ans: 0.000159
